Assay: recombinant UMI read abundance after kanamycin selection (control-corrected) (log10(CPM+1)); higher = more efficient recombination; extreme values may be limits of the assay; sequences stand for … in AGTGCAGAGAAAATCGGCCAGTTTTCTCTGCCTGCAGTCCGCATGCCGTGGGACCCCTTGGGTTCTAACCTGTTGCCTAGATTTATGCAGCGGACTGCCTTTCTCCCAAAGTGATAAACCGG…AGGTTGGTTTCACT; site = the 11-nt donor;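 further: IS621 bridge recombinase in Escherichia coli cells against a fixed T5 target plasmid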
Note to self: class labels come from recorded recombinant UMI read abundance (log10), ranges listed here: low-valued: < 0.005; mid-valued: ≥ 0.005 and < 0.7; high-valued: ≥ 0.7

MACROMOLECULE_SEQUENCE: CTATCAACATGGACCGGTTTTCCCGGTAATCCGTATTTGCT (site CTATCAACTAG)
CATEGORY_LABEL: high-valued
//
MACROMOLECULE_SEQUENCE: CGTTCACCATGGACCGGTTTTCCCGGTAATCCGTATTTGCT (site CGTTCACCTAG)
CATEGORY_LABEL: low-valued
//
MACROMOLECULE_SEQUENCE: AACCGTCCATGGACCGGTTTTCCCGGTAATCCGTATTTGAT (site AACCGCCCTAT)
CATEGORY_LABEL: low-valued
//
MACROMOLECULE_SEQUENCE: ATCCTAGCATGGACCGGTTTTCCCGGTAATCCGTATTTGTT (site ATCCTAGCTAA)
CATEGORY_LABEL: mid-valued
//
MACROMOLECULE_SEQUENCE: TAATGAGCATGGACCGGTTTTCCCGGTAATCCGTATTTGGG (site TAATCAGCTCC)
CATEGORY_LABEL: mid-valued
//
MACROMOLECULE_SEQUENCE: GGCTAGACATGGACCGGTTTTCCCGGTAATCCGTATTTGTG (site GGCTAGACTCA)
CATEGORY_LABEL: mid-valued
//
MACROMOLECULE_SEQUENCE: GGTTCCCCATGGACCGGTTTTCCCGGTAATCCGTATTTGTA (site TGTTCCCCTTA)
CATEGORY_LABEL: mid-valued
//
MACROMOLECULE_SEQUENCE: CCGTCTACATGGACCGGTTTTCCCGGTAATCCGTATTTGCT (site CCGTGTACTAG)
CATEGORY_LABEL: low-valued
//
MACROMOLECULE_SEQUENCE: CCCGGTTCATGGACCGGTTTTCCCGGTAATCCGTATTTGCA (site CCCGGTCCTTG)
CATEGORY_LABEL: low-valued
//
MACROMOLECULE_SEQUENCE: AGAACCGCATGGACCGGTTTTCCCGGTAATCCGTATTTGAC (site AGAACCGCTGT)
CATEGORY_LABEL: high-valued
//
MACROMOLECULE_SEQUENCE: GCGAACCCATGGACCGGTTTTCCCGGTAATCCGTATTTGAT (site GCGAACCCTAT)
CATEGORY_LABEL: high-valued
//
MACROMOLECULE_SEQUENCE: CGTTAGACATGGACCGGTTTTCCCGGTAATCCGTATTTGAG (site CGTTACACTCT)
CATEGORY_LABEL: mid-valued
//
MACROMOLECULE_SEQUENCE: AACTCTACATGGACCGGTTTTCCCGGTAATCCGTATTTGTG (site AACTCTACTCA)
CATEGORY_LABEL: mid-valued
//
MACROMOLECULE_SEQUENCE: TTCTTGACATGGACCGGTTTTCCCGGTAATCCGTATTTGCT (site TACTTGACTAG)
CATEGORY_LABEL: mid-valued
//
MACROMOLECULE_SEQUENCE: CCCCACACATGGACCGGTTTTCCCGGTAATCCGTATTTGAA (site CCCCACACTTG)
CATEGORY_LABEL: low-valued
//
MACROMOLECULE_SEQUENCE: ATAGGTACATGGACCGGTTTTCCCGGTAATCCGTATTTGAC (site TTAGGTACTGT)
CATEGORY_LABEL: high-valued
//
MACROMOLECULE_SEQUENCE: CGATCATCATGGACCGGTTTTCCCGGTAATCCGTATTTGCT (site CCATCTTCTAG)
CATEGORY_LABEL: low-valued
//
MACROMOLECULE_SEQUENCE: CGCCGTACATGGACCGGTTTTCCCGGTAATCCGTATTTGCT (site CGCCGAACTAG)
CATEGORY_LABEL: low-valued
//
MACROMOLECULE_SEQUENCE: ACCACCGCATGGACCGGTTTTCCCGGTAATCCGTATTTGCG (site ACCACCGCTCG)
CATEGORY_LABEL: mid-valued
//
MACROMOLECULE_SEQUENCE: CGTCTTCCATGGACCGGTTTTCCCGGTAATCCGTATTTGTC (site CGTCTTCCTGA)
CATEGORY_LABEL: high-valued
//
MACROMOLECULE_SEQUENCE: ATTGAGACATGGACCGGTTTTCCCGGTAATCCGTATTTGCT (site ATTGAGACTAT)
CATEGORY_LABEL: high-valued
//
MACROMOLECULE_SEQUENCE: AAAGTATCATGGACCGGTTTTCCCGGTAATCCGTATTTGCT (site AAAGTATCTAG)
CATEGORY_LABEL: high-valued
//
MACROMOLECULE_SEQUENCE: AACCGTCCATGGACCGGTTTTCCCGGTAATCCGTATTTGAG (site AACCGTCCTCT)
CATEGORY_LABEL: mid-valued
//
MACROMOLECULE_SEQUENCE: CGCTCCTCATGGACCGGTTTTCCCGGTAATCCGTATTTGCC (site CTCTCCTCTGG)
CATEGORY_LABEL: high-valued
//
MACROMOLECULE_SEQUENCE: CCGCACACATGGACCGGTTTTCCCGGTAATCCGTATTTGTA (site CCTCACACTTA)
CATEGORY_LABEL: low-valued
//
MACROMOLECULE_SEQUENCE: TCGCTAGCATGGACCGGTTTTCCCGGTAATCCGTATTTGCT (site TCGCTAGCTAG)
CATEGORY_LABEL: low-valued
//
MACROMOLECULE_SEQUENCE: CCCATATCATGGACCGGTTTTCCCGGTAATCCGTATTTGCC (site CCCATATCTGC)
CATEGORY_LABEL: low-valued
//
MACROMOLECULE_SEQUENCE: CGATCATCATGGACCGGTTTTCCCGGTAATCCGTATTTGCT (site CGACAATCTAG)
CATEGORY_LABEL: mid-valued
//
MACROMOLECULE_SEQUENCE: AGGGCCTCATGGACCGGTTTTCCCGGTAATCCGTATTTGCT (site AGGGCCTCTAG)
CATEGORY_LABEL: high-valued
//
MACROMOLECULE_SEQUENCE: ATAGTATCATGGACCGGTTTTCCCGGTAATCCGTATTTGCA (site AAAGTATCTTG)
CATEGORY_LABEL: high-valued
//
MACROMOLECULE_SEQUENCE: CTCCGTACATGGACCGGTTTTCCCGGTAATCCGTATTTGCT (site CTCCGTACTAG)
CATEGORY_LABEL: high-valued
//
MACROMOLECULE_SEQUENCE: CGGTTCCCATGGACCGGTTTTCCCGGTAATCCGTATTTGTG (site AGGTTCCCTCA)
CATEGORY_LABEL: mid-valued
//
MACROMOLECULE_SEQUENCE: TTCTGGGCATGGACCGGTTTTCCCGGTAATCCGTATTTGCA (site TTCTGGGCTTG)
CATEGORY_LABEL: mid-valued
//
MACROMOLECULE_SEQUENCE: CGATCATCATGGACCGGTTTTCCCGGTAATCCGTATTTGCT (site CGATCCTCTAG)
CATEGORY_LABEL: low-valued
//
MACROMOLECULE_SEQUENCE: GGGCTTGCATGGACCGGTTTTCCCGGTAATCCGTATTTGGA (site GGGCTTGCTTC)
CATEGORY_LABEL: mid-valued
//
MACROMOLECULE_SEQUENCE: GAATGGCCATGGACCGGTTTTCCCGGTAATCCGTATTTGCA (site GAATGTCCTTG)
CATEGORY_LABEL: low-valued

Values compiled from the supplement of paper PMC11208160.
